Quick reference: solubility at 18 h of the listed items.
test: Water solubility assay (pH 7.8 buffer); format: physicochemical; conditions: pH 7.8
Numbered stars: 1 amine (or outer) side, 2 acyl side, 3 side chain; on linkers, the order of the positions; unused ones are H or OH. Square brackets hold non-standard residues; d marks the D form. Peptide text beside a SMILES is read from it. X32 = CC(=O)N(CC[C@@H](C)[C@@H](O)[C@H](C(=O)[*:2])N(C)[*:1])C(C)C; X5 = C[C@H](CCN1CCS(=O)(=O)CC1)[C@@H](O)[C@H](C(=O)[*:2])N(C)[*:1]; X1 = Cc1cccc(CCC[C@@H](C)[C@@H](O)[C@H](C(=O)[*:2])N(C)[*:1])n1; X6 = C[C@H](CCN1CCOC[C@H]1C)[C@@H](O)[C@H](C(=O)[*:2])N(C)[*:1]; X23 = COC1CN(CC[C@@H](C)[C@@H](O)[C@H](C(=O)[*:2])N(C)[*:1])C1; X14 = C[C@H](CCCc1ncccn1)[C@@H](O)[C@H](C(=O)[*:2])N(C)[*:1]; X16 = C[C@H](CCN1CCOCC1)[C@@H](O)[C@H](C(=O)[*:2])N(C)[*:1]; d(aThr) = C[C@@H](O)[C@@H](N)C(=O)O; NMeL = CN[C@@H](CC(C)C)C(=O)O; dNMeL = CN[C@H](CC(C)C)C(=O)O; dNMeV = CN[C@@H](C(=O)O)C(C)C; Hiv = CC(C)[C@H](O)C(=O)O; dAbu = CC[C@@H](N)C(=O)O; Sar = CNCC(=O)O

Worked examples, 2 molecules total:
{"MOLECULE": "C/C=C/C[C@@H](C)[C@@H](O)[C@@H]1C(=O)N[C@H]([C@@H](C)O)C(=O)N(C)CC(=O)N(C)[C@@H](CC(C)C)C(=O)N[C@H](CC(C)C)C(=O)N(C)[C@H](CC(C)C)C(=O)N[C@H](C)C(=O)O[C@@H](C(C)C)C(=O)N(C)[C@H](CC(C)C)C(=O)N[C@H](CC(C)C)C(=O)N(C)[C@H](C(C)C)C(=O)N1C [Example 1, reference compound]", "solubility at 18 h": "10 to 25 µM"}
{"MOLECULE": "CC(C)C[C@@H]1C(=O)N[C@H](CC(C)C)C(=O)N(C)[C@H](C(C)C)C(=O)N(C)[C@H]([C@H](O)[C@H](C)CCN2CCS(=O)(=O)CC2)C(=O)N[C@H]([C@@H](C)O)C(=O)N(C)CC(=O)N(C)[C@@H](CC(C)C)C(=O)N[C@H](CC(C)C)C(=O)N(C)[C@H](CC(C)C)C(=O)N[C@H](C)C(=O)O[C@@H](C(C)C)C(=O)N1C [Example 23] (cyclo([Hiv][dNMeL][dL][dNMeV][X5][d(aThr)][Sar][NMeL][dL][dNMeL][dA]))", "solubility at 18 h": "75 to 100 µM"}

Exam item: Suppose we examine the molecule CC[C@H]1NC(=O)[C@@H]([C@H](O)[C@H](C)CCN2CCOCC2)N(C)C(=O)[C@@H](C(C)C)N(C)C(=O)[C@@H](CC(C)C)NC(=O)[C@@H](CC(C)C)N(C)C(=O)[C@H](C(C)C)OC(=O)[C@@H](C)NC(=O)[C@@H](CC(C)C)N(C)C(=O)[C@@H](CC(C)C)NC(=O)[C@H](CC(C)C)N(C)C(=O)CN(C)C1=O [Example 13] (cyclo([Hiv][dNMeL][dL][dNMeV][X16][dAbu][Sar][NMeL][dL][dNMeL][dA])) ; what solubility at 18 h value has been reported?
Marked response: 25 to 50 µM

Exam item: solubility at 18 h for COC1CN(CC[C@@H](C)[C@@H](O)[C@@H]2C(=O)N[C@H]([C@@H](C)O)C(=O)N(C)CC(=O)N(C)[C@@H](CC(C)C)C(=O)N[C@H](CC(C)C)C(=O)N(C)[C@H](CC(C)C)C(=O)N[C@H](C)C(=O)O[C@@H](C(C)C)C(=O)N(C)[C@H](CC(C)C)C(=O)N[C@H](CC(C)C)C(=O)N(C)[C@H](C(C)C)C(=O)N2C)C1 [Example 11] (cyclo([Hiv][dNMeL][dL][dNMeV][X23][d(aThr)][Sar][NMeL][dL][dNMeL][dA])) ?
Marked response: > 100 µM

Exam item: // solubility at 18 h lookup, key: CC(=O)N(CC[C@@H](C)[C@@H](O)[C@@H]1C(=O)N[C@H]([C@@H](C)O)C(=O)N(C)CC(=O)N(C)[C@@H](CC(C)C)C(=O)N[C@H](CC(C)C)C(=O)N(C)[C@H](CC(C)C)C(=O)N[C@H](C)C(=O)O[C@@H](C(C)C)C(=O)N(C)[C@H](CC(C)C)C(=O)N[C@H](CC(C)C)C(=O)N(C)[C@H](C(C)C)C(=O)N1C)C(C)C [Example 38] (cyclo([Hiv][dNMeL][dL][dNMeV][X32][d(aThr)][Sar][NMeL][dL][dNMeL][dA]))
Marked response: 50 to 75 µM

Exam item: Can you share its solubility at 18 h? I mean this molecule: CC(C)C[C@@H]1C(=O)N[C@H](CC(C)C)C(=O)N(C)[C@H](C(C)C)C(=O)N(C)[C@H]([C@H](O)[C@H](C)CCN2CCOC[C@H]2C)C(=O)N[C@H]([C@@H](C)O)C(=O)N(C)CC(=O)N(C)[C@@H](CC(C)C)C(=O)N[C@H](CC(C)C)C(=O)N(C)[C@H](CC(C)C)C(=O)N[C@H](C)C(=O)O[C@@H](C(C)C)C(=O)N1C [Example 29] (cyclo([Hiv][dNMeL][dL][dNMeV][X6][d(aThr)][Sar][NMeL][dL][dNMeL][dA]))
Marked response: > 100 µM

Exam item: What value of solubility at 18 h has been recorded for this entry: CC(C)C[C@@H]1C(=O)N[C@H](CC(C)C)C(=O)N(C)[C@H](C(C)C)C(=O)N(C)[C@H]([C@H](O)[C@H](C)CCCc2ncccn2)C(=O)N[C@H]([C@@H](C)O)C(=O)N(C)CC(=O)N(C)[C@@H](CC(C)C)C(=O)N[C@H](CC(C)C)C(=O)N(C)[C@H](CC(C)C)C(=O)N[C@H](C)C(=O)O[C@@H](C(C)C)C(=O)N1C [Example 16] (cyclo([Hiv][dNMeL][dL][dNMeV][X14][d(aThr)][Sar][NMeL][dL][dNMeL][dA]))
Marked response: 25 to 50 µM

Exam item: What does the data say about its solubility at 18 h? Entry: CO[C@H](C)[C@H]1NC(=O)[C@@H]([C@H](O)[C@H](C)CCN2CCOCC2)N(C)C(=O)[C@@H](C(C)C)N(C)C(=O)[C@@H](CC(C)C)NC(=O)[C@@H](CC(C)C)N(C)C(=O)[C@H](C(C)C)OC(=O)[C@@H](C)NC(=O)[C@@H](CC(C)C)N(C)C(=O)[C@@H](CC(C)C)NC(=O)[C@H](CC(C)C)N(C)C(=O)CN(C)C1=O (stereo in doubt) [Example 7]
Marked response: 50 to 75 µM

Exam item: solubility at 18 h for CC[C@H]1NC(=O)[C@@H]([C@H](O)[C@H](C)CCCc2cccc(C)n2)N(C)C(=O)[C@@H](C(C)C)N(C)C(=O)[C@@H](CC(C)C)NC(=O)[C@@H](CC(C)C)N(C)C(=O)[C@H](C(C)C)OC(=O)[C@@H](C)NC(=O)[C@@H](CC(C)C)N(C)C(=O)[C@@H](CC(C)C)NC(=O)[C@H](CC(C)C)N(C)C(=O)CN(C)C1=O [Example 21] (cyclo([Hiv][dNMeL][dL][dNMeV][X1][dAbu][Sar][NMeL][dL][dNMeL][dA])) ?
Marked response: 10 to 25 µM

====

molecular target: calcineurin/cyclophilin A (Homo sapiens, UniProt P62937+P63098+Q08209); construct: Sigma (CypA) BML-AK804; C3805; assay: Calcineurin phosphatase (CaN) assay in the presence of Cyp A; conditions: inhibitor in 1:1 complex with Cyp A; read-out: CaN + CypA (IC50 in the calcineurin/cyclophilin A assay)
Sequence (P63098 whole entry, other chains not shown): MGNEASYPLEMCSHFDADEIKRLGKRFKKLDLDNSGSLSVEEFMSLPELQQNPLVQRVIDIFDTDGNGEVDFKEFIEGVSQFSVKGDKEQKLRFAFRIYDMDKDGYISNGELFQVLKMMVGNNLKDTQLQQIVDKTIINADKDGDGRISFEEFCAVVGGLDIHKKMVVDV
Sequence (P62937 whole entry, other chains not shown): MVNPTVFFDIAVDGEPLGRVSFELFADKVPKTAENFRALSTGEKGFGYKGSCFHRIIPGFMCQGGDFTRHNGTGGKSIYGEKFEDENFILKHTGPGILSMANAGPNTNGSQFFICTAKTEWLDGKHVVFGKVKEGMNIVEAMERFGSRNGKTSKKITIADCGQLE
Numbered stars: 1 amine (or outer) side, 2 acyl side, 3 side chain; on linkers, the order of the positions; unused ones are H or OH. Square brackets hold non-standard residues; d marks the D form. Peptide text beside a SMILES is read from it. X2 = C[C@H](CCCc1cccc(N2CCOCC2)n1)[C@@H](O)[C@H](C(=O)[*:2])N(C)[*:1]; X5 = C[C@H](CCN1CCS(=O)(=O)CC1)[C@@H](O)[C@H](C(=O)[*:2])N(C)[*:1]; X3 = C[C@H](CCN1CC2CCC(C1)O2)[C@@H](O)[C@H](C(=O)[*:2])N(C)[*:1]; d(aThr) = C[C@@H](O)[C@@H](N)C(=O)O; NMeL = CN[C@@H](CC(C)C)C(=O)O; dNMeL = CN[C@H](CC(C)C)C(=O)O; dNMeV = CN[C@@H](C(=O)O)C(C)C; Hiv = CC(C)[C@H](O)C(=O)O; Sar = CNCC(=O)O
Each entry below carries its reported IC50.

Some solved cases for reference:
{"COMPOUND": "C/C=C/C[C@@H](C)[C@@H](O)[C@@H]1C(=O)N[C@H]([C@@H](C)O)C(=O)N(C)CC(=O)N(C)[C@@H](CC(C)C)C(=O)N[C@H](CC(C)C)C(=O)N(C)[C@H](CC(C)C)C(=O)N[C@H](C)C(=O)O[C@@H](C(C)C)C(=O)N(C)[C@H](CC(C)C)C(=O)N[C@H](CC(C)C)C(=O)N(C)[C@H](C(C)C)C(=O)N1C [Example 1, reference compound]", "IC50": "0.07 µM"}
{"COMPOUND": "CC(C)C[C@@H]1C(=O)N[C@H](CC(C)C)C(=O)N(C)[C@H](C(C)C)C(=O)N(C)[C@H]([C@H](O)[C@H](C)CCN2CCS(=O)(=O)CC2)C(=O)N[C@H]([C@@H](C)O)C(=O)N(C)CC(=O)N(C)[C@@H](CC(C)C)C(=O)N[C@H](CC(C)C)C(=O)N(C)[C@H](CC(C)C)C(=O)N[C@H](C)C(=O)O[C@@H](C(C)C)C(=O)N1C [Example 23] (cyclo([Hiv][dNMeL][dL][dNMeV][X5][d(aThr)][Sar][NMeL][dL][dNMeL][dA]))", "IC50": "> 10 µM"}

Exam item: Item CC(C)C[C@@H]1C(=O)N[C@H](CC(C)C)C(=O)N(C)[C@H](C(C)C)C(=O)N(C)[C@H]([C@H](O)[C@H](C)CCCc2cccc(N3CCOCC3)n2)C(=O)N[C@H]([C@@H](C)O)C(=O)N(C)CC(=O)N(C)[C@@H](CC(C)C)C(=O)N[C@H](CC(C)C)C(=O)N(C)[C@H](CC(C)C)C(=O)N[C@H](C)C(=O)O[C@@H](C(C)C)C(=O)N1C [Example 20] (cyclo([Hiv][dNMeL][dL][dNMeV][X2][d(aThr)][Sar][NMeL][dL][dNMeL][dA])) has what recorded IC50?
Marked response: > 5 µM

Exam item: I'd like to know its IC50. The compound in question is CC(C)C[C@@H]1C(=O)N[C@H](CC(C)C)C(=O)N(C)[C@H](C(C)C)C(=O)N(C)[C@H]([C@H](O)[C@H](C)CCN2CC3CCC(C2)O3)C(=O)N[C@H]([C@@H](C)O)C(=O)N(C)CC(=O)N(C)[C@@H](CC(C)C)C(=O)N[C@H](CC(C)C)C(=O)N(C)[C@H](CC(C)C)C(=O)N[C@H](C)C(=O)O[C@@H](C(C)C)C(=O)N1C [Example 22] (cyclo([Hiv][dNMeL][dL][dNMeV][X3][d(aThr)][Sar][NMeL][dL][dNMeL][dA]))
Marked response: > 10 µM

Data provenance is patent US9382295B2.
